Recorded inhibition, one value per entry.
# Assay target: Cytochrome P450 2C9 (Homo sapiens) (UniProt P11712)
# Sequence (P11712 whole entry, looked up): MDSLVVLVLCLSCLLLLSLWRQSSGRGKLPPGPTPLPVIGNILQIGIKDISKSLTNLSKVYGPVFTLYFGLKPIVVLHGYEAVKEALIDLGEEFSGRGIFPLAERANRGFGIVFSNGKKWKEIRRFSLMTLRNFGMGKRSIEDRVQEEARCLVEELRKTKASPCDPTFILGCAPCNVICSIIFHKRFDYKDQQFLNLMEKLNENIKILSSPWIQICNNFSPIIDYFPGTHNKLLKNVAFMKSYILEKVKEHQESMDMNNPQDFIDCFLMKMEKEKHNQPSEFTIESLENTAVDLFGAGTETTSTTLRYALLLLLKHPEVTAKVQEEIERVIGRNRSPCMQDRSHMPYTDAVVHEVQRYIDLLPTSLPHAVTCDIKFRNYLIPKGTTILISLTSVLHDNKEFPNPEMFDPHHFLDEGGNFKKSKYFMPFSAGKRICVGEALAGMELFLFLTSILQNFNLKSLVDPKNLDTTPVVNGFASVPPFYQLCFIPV
# Method notes: blockers of cytochrome P450 2C9 activity – biochemical, luminescence, ADME assay, primary screen (AID 777)
# Protocol conditions: CYP2C9 Supersomes, luciferin-H conversion, at 5 µM, hits give high values
The campaign covered roughly 96,000 compounds. About 19,000 (20%) were called active. Only a sample is shown.
Reply with just the number (in %).

[ask] Need inhibition of Cc1ccccc1CSCC(=O)NC(=O)NC(C)(C)C , thanks.
[reply] 62.3

[ask] Lookup CCC(=O)Nc1ccccc1N1CCN(S(C)(=O)=O)CC1
[reply] -0.9

[ask] Lookup COc1ccccc1CNC(=O)C1CCN(S(C)(=O)=O)CC1
[reply] -17.1

[ask] Lookup COc1ccccc1OCCC(=O)OCC(=O)NC(=O)NC(C)(C)C
[reply] 2.5

[ask] Lookup O=C(CNCCO)NC12CC3CC(CC(C3)C1)C2
[reply] -6

----------
# Assay target: Cytochrome P450 2C9 (Homo sapiens) (UniProt P11712)
# Method notes: blockers of cytochrome P450 2C9 activity – biochemical, luminescence, ADME assay, primary screen (AID 777)
# Protocol conditions: CYP2C9 Supersomes, luciferin-H conversion, at 5 µM
About 19,000 (20%) of roughly 96,000 compounds were called active.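 How the source made its calls: active means blocking of liver enzyme CYP2C9 beyond about 50% at 5 µM (limit read from the data); inactive means the rest.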 The list is a sample of the results.
Valid outcomes are listed here; reply with one: 1 = active, -1 = inactive

Recorded results for 2 compounds are shown here.
>>> group_label("O=C1NC(Nc2nc3ccccc3s2)(C(F)(F)F)C(=O)N1C1CCCCC1 (stereo not drawn)")
1
>>> group_label("CCOc1ccccc1C1C(C(=O)OC)=CN(C)C=C1C(=O)OC")
-1

[ask] Assay outcome for CCOc1ccc(NC(=O)CCS(=O)(=O)c2cccc3nsnc23)cc1 : what was it?
[reply] -1

[ask] Lookup CC(C)CCNC(=O)C(C)N(C(=O)Cn1nnc(-c2ccc(F)cc2)n1)C1CCCC1 (stereo not drawn)
[reply] 1

[ask] Lookup CCOc1cc2[nH]c(=S)n(CCN3CCCCC3C)c(=O)c2cc1OCC (stereo not drawn)
[reply] -1

[ask] Lookup CCOc1cccc(-n2nnnc2-c2ccc(OC)cc2)c1
[reply] 1

[ask] Lookup Cc1oc(-c2ccccc2Cl)[n+]([O-])c1C
[reply] -1

[ask] Lookup CCN(CC)c1ccc(/C=N/Nc2nc(C)cc(=O)[nH]2)cc1
[reply] -1

----------
# Assay target: Cytochrome P450 2C9 (Homo sapiens)
# Method notes: blockers of cytochrome P450 2C9 activity – biochemical, luminescence, ADME assay, primary screen (AID 777)
# Protocol conditions: CYP2C9 Supersomes, luciferin-H conversion, at 5 µM
Screen size: about 96,000 compounds; about 19,000 (20%) were called active.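 Rule for the calls: active = blocking of liver enzyme CYP2C9 beyond about 50% at 5 µM (limit read from the data); inactive = the rest.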 Not all results are given here.
Valid outcomes are listed here; reply with one: t = active, f = inactive

Recorded results for 5 compounds are shown here.
>>> group_label("COc1ccccc1OCc1nc2ccccc2s1")
"t"
>>> group_label("O=C(c1ccccc1)C(Cn1cncn1)C(Sc1ccccc1)c1ccccc1 (stereo unspecified)")
"t"
>>> group_label("OCCNc1nc2ccccc2n1-c1ncnc2sc3c(c12)CCC3")
"f"
>>> group_label("O=C(Nc1ncc2c(n1)CC(c1ccco1)CC2=O)c1ccc(Cl)cc1 (stereo unspecified)")
"f"
>>> group_label("O=C(CSc1nnc2ccccn12)c1ccccc1")
"f"

Could you now consider this next compound?
[ask] Assay outcome for Cc1nnc(SCC(=O)NCCOc2ccc(Cl)cc2)n1-c1ccccc1 : what was it?
[reply] f
